- test_protocol: Pharmacokinetic evaluation in rats after intravenous or gavage administration
- Format: in vivo, SD rats
- condition_description: SD, rat, plasma, iv, 1 mg/kg
reported_endpoint: half-life

{"columns": ["compound_string", "reported_endpoint", "val"],
 "data": [
  ["N#Cc1ccc2[nH]cc(CCCCN3CCN(c4ncc(-c5ccc(F)cc5F)cn4)CC3)c2c1", "half-life", "234 min"],
  ["N#Cc1ccc2[nH]cc(CCCCN3CCN(c4ncc(-c5ccc(F)cc5)cn4)CC3)c2c1", "half-life", "278 min"],
  ["N#Cc1ccc2[nH]cc(CCCN3CCN(c4ncc(-c5ccc(F)cc5)cn4)CC3)c2c1", "half-life", "351 min"],
  ["N#Cc1ccc2[nH]cc(CCCN3CCN(c4ncc(-c5cccc(C(N)=O)c5)cn4)CC3)c2c1", "half-life", "95.4 min"],
  ["N#Cc1ccc2[nH]cc(CCCN3CCN(c4ncc(-c5ccc(Cl)cc5)cn4)CC3)c2c1", "half-life", "571 min"],
  ["N#Cc1ccc2[nH]cc(CCCN3CCN(c4ncc(-c5ccc(F)cc5F)cn4)CC3)c2c1", "half-life", "452 min"]
]}
